target: ENPP-1 (Homo sapiens); construct: purchased Biovendor RD172124100; test: ENPP-1 enzyme assay with pNP-TMP substrate; type: biochemical; conditions: 12.5 ng ENPP-1, 720 μM substrate pNP-TMP, pH 9.0, 37° C., 60 minutes, absorbance 405 nm; average IC50
Sequence (P22413 whole entry): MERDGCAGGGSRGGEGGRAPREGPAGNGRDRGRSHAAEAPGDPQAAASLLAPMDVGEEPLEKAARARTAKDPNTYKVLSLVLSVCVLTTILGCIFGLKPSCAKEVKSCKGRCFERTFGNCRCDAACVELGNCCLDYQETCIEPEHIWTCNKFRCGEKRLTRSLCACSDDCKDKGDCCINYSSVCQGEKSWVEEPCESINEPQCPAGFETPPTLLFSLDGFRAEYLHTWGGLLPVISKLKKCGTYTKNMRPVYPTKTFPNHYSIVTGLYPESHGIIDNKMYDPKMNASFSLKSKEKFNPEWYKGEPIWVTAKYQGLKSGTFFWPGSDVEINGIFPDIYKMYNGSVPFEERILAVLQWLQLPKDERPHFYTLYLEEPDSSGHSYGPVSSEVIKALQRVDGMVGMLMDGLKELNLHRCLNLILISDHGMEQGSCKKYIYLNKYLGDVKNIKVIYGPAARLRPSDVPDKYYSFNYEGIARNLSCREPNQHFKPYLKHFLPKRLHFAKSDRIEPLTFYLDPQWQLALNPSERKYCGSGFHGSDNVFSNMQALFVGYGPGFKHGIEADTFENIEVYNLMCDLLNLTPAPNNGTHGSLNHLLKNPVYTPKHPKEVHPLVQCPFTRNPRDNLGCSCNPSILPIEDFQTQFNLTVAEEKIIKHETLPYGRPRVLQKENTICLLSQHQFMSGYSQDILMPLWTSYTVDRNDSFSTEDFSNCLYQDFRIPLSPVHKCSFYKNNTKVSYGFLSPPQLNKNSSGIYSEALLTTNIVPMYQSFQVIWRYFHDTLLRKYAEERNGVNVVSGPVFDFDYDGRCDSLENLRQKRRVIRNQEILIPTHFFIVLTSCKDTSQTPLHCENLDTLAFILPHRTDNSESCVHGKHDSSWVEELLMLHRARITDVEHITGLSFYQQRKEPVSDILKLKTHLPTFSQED
pIC50: −log10 of the molar value.
MEASURED METRIC: pIC50

[[record]]
compound = "COc1ccc2c3c(n(Cc4ccc(S(N)(=O)=O)cc4)c2c1)CCNC3"
result = "> 6.00"

[[record]]
compound = "COc1ccc2c(c1)c1c(=O)[nH]ncc1n2Cc1ccc(S(N)(=O)=O)cc1"
result = "> 6.00"

[[record]]
compound = "Cc1ccc2c(c1)c1ncccc1n2Cc1ccc(S(C)(=N)=O)cc1 (stereo not drawn)"
result = "> 6.00"

[[record]]
compound = "COc1ccc2c(c1)c1c(n2Cc2ccc(S(N)(=O)=O)cc2)CCCN1"
result = "> 6.00"

[[record]]
compound = "COc1cc2c3ncccc3n(Cc3ccc(S(C)(=N)=O)cc3)c2cc1F (single isomer, unassigned) [Compound 30b]"
result = "> 6.00"

[[record]]
compound = "COc1cc2c3ncccc3n(Cc3ccc(S(N)(=O)=O)cc3)c2cc1OC"
result = "> 6.00"


Values compiled from patent US20250367173A1.
